target-entity: Cloned Neurokinin Receptor Subtype 2 Human (Homo sapiens, UniProt P21452)
Construct: purchased Biosignal Packard; host or cells: CHO cells
test-summary: NK-2 receptor-binding experiment ([3H]-SR48968, CHO cell membranes)
test-conditions: Table 3; inhibition of [3H]-SR48968 (0.85 nM) binding, pseudo-Hill analysis
Protocol: 2. NK-2 Receptor-binding Experiment […] The filter employed to collect the membrane components was transferred to a plastic vial containing UltimaGold MV (5 mL), and measured by means of a liquid scintillation counter (Packard, 2000CA) in terms of the radioactivity. Percent radioactive ligand-receptor binding inhibition of each test compound was calculated by use of the following equation, and IC50 (nM) was determined through pseudo-Hill analysis. […] A: Radioactivity attributed to non-specific binding […]
Counter-ions that a name gives are not always drawn.
The threshold is 0.8 nM. Values of IC50 beneath it are tagged 1.0; values meeting or exceeding it are tagged 0.0.

CCN(C(=O)C(=O)N(C)[C@](CCN1CCC2(CC1)NC(=O)Cc1ccccc12)(CN(C)C(=O)CC(F)(F)F)c1ccc(Cl)c(Cl)c1)c1ccccc1 [Compound No. 41, hydrochloride] : 0.0

Kindly review the next molecule as well.
Field: below-cutoff. Rule: recorded IC50 strictly less than 0.8 nM. Subject: CN(C[C@](CCN1CCC2(CC1)c1ccccc1C[S@+]2[O-])(c1ccc(Cl)c(Cl)c1)N(C)C(=O)c1ccccc1)C(=O)C(F)(F)F [Compound No. 26, hydrochloride]
0.0

----------
target-entity: Cloned Neurokinin Receptor Subtype 2 Human (Homo sapiens)
Construct: purchased Biosignal Packard; host or cells: CHO cells
Sequence (P21452 1-398): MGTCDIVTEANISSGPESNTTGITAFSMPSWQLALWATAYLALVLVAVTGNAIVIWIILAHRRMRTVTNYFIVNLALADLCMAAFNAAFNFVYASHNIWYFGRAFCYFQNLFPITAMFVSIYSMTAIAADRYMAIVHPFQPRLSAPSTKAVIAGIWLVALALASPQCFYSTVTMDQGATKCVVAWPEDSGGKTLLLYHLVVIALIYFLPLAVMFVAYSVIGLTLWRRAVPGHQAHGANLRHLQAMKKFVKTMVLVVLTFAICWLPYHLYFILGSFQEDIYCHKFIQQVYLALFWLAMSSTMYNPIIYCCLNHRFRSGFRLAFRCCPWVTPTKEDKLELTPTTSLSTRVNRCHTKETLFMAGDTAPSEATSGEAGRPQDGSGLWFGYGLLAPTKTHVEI
test-summary: NK-2 receptor-binding experiment ([3H]-SR48968, CHO cell membranes)
test-conditions: Table 4; inhibition of [3H]-SR48968 (0.85 nM) binding, pseudo-Hill analysis
Counter-ions that a name gives are not always drawn.
For each entry below, report its pIC50 value.
Give bare numbers, as −log10 of the molar value.

A selection of reference data follows.
CN(C[C@](CCN1CCC2(CC1)NC(=O)Cc1ccccc12)(c1ccc(Cl)c(Cl)c1)N(C)C(=O)NC(c1ccccc1)c1ccccc1)C(=O)C(F)(F)F [Compound No. 46] : 8.74
CC(=O)NC1(c2ccccc2)CCN(CCC(CN(C)C(=O)C(F)F)(c2ccc(Cl)c(Cl)c2)N(C)C(=O)NC(c2ccccc2)c2ccccc2)CC1 (centres unmarked) [Compound No. 12, hydrochloride] : 8.21
CC(C)C(=O)N(C)CC(CCN1CCC2(CC1)c1ccccc1C[S+]2[O-])(c1ccc(Cl)c(Cl)c1)N(C)C(=O)CC(c1ccccc1)c1ccccc1 (centres unmarked) [Compound No. 2, hydrochloride] : 8.68
CN(C[C@](CCN1CCC2(CC1)c1ccccc1C[S@+]2[O-])(c1ccc(Cl)c(Cl)c1)N(C)C(=O)C(c1ccccc1)c1ccccc1)C(=O)CC(F)(F)F [Compound No. 42, hydrochloride] : 8.40

# evaluate next
get_value(item= CN(CC(CCN1CCC2(CC1)c1ccccc1C[S+]2[O-])(c1ccc(Cl)c(Cl)c1)N(C)C(=O)CC(c1ccccc1)c1ccccc1)C(=O)CC(F)(F)F (centres unmarked) [Compound No. 1, hydrochloride] , readout=pIC50) returns 8.80

----------
Please respond with reported IC50 for every item in the list.
target-entity: Cloned Neurokinin Receptor Subtype 2 Human (Homo sapiens)
Construct: purchased Biosignal Packard; host or cells: CHO cells
Sequence (P21452 1-398): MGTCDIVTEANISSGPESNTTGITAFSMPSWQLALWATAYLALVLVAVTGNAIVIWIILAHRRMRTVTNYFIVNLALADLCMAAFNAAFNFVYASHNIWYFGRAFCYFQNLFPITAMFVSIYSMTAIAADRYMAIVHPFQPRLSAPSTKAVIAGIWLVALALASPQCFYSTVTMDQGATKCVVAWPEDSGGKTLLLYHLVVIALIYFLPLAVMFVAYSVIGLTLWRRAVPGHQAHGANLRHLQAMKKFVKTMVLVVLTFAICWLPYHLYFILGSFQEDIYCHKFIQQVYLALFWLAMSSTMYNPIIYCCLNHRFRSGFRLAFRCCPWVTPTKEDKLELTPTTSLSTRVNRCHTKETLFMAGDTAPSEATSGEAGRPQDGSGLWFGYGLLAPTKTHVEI
test-summary: NK-2 receptor-binding experiment ([3H]-SR48968, CHO cell membranes)
test-conditions: Table 3; inhibition of [3H]-SR48968 (0.85 nM) binding, pseudo-Hill analysis
Structures can show the parent of a compound that is named as a salt.
Numbers only, in nM.

Completed entries (count: 4):
CN(C[C@](CCN1CCC2(CC1)NC(=O)Cc1ccccc12)(c1ccc(Cl)c(Cl)c1)N(C)C(=O)c1ccccc1)C(=O)C(F)(F)F [Compound No. 23, hydrochloride] : 1.7
CN(CC(CCN1CCC2(CC1)c1ccccc1CS2(=O)=O)(c1ccc(Cl)c(Cl)c1)N(C)C(=O)NC(c1ccccc1)c1ccccc1)C(=O)C(F)F (centres unmarked) [Compound No. 11, hydrochloride] : 8.1
CN(C[C@](CCN1CCC2(CC1)NC(=O)Cc1ccccc12)(c1ccc(Cl)c(Cl)c1)N(C)C(=O)C(=O)Nc1ccccc1)C(=O)C(F)(F)F [Compound No. 29, hydrochloride] : 4
CN(CC(CCN1CCC2(CC1)c1ccccc1C[S+]2[O-])(c1ccc(Cl)c(Cl)c1)N(C)C(=O)Cc1ccccc1)C(=O)CC(F)(F)F (centres unmarked) [Compound No. 14, hydrochloride] : 0.34

Readout IC50 for CC(C)C(=O)N(C)C[C@](CCN1CCC2(CC1)c1ccccc1C[S@+]2[O-])(c1ccc(Cl)c(Cl)c1)N(C)C(=O)C(=O)N(C)c1ccccc1 [Compound No. 33, hydrochloride] , test system Cloned Neurokinin Receptor Subtype 2 Human (Homo sapiens), was 0.65

----------
Provide the recorded pIC50 for the entries that follow.
target-entity: Cloned Neurokinin Receptor Subtype 2 Human (Homo sapiens)
Construct: purchased Biosignal Packard; host or cells: CHO cells
Sequence (P21452 1-398): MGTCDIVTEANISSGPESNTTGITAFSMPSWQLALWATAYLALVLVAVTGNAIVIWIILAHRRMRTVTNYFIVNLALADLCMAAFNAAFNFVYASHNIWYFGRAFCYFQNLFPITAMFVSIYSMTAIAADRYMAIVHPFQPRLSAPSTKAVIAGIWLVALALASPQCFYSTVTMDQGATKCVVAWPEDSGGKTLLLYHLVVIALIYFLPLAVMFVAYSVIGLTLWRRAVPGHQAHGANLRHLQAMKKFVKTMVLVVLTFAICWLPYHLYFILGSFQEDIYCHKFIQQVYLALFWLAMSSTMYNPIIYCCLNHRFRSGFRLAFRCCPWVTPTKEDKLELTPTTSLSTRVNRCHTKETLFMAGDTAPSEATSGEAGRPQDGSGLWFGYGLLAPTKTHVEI
test-summary: NK-2 receptor-binding experiment ([3H]-SR48968, CHO cell membranes)
test-conditions: Table 3; inhibition of [3H]-SR48968 (0.85 nM) binding, pseudo-Hill analysis
Where a name gives a salt, the structure may show the parent alone.
Give bare numbers, as −log10 of the molar value.

Take each entry in turn and give its pIC50.
1. CC(C)C(=O)N(C)C[C@](CCN1CCC2(CC1)c1ccccc1C[S@+]2[O-])(c1ccc(Cl)c(Cl)c1)N(C)C(=O)c1ccccc1 [Compound No. 32, hydrochloride]
2. CC(=O)N(C)C[C@](CCN1CCC2(CC1)NC(=O)Cc1ccccc12)(c1ccc(Cl)c(Cl)c1)N(C)C(=O)c1ccccc1 [Compound No. 36, hydrochloride]
3. CCC(=O)N(C)C[C@](CCN1CCC2(CC1)c1ccccc1C[S@+]2[O-])(c1ccc(Cl)c(Cl)c1)N(C)C(=O)C(=O)N(C)c1ccccc1 [Compound No. 35, hydrochloride]

1: 9.00; 2: 9.07; 3: 8.34

Hi! Can you tell me pIC50 for each of these compounds?
1. CN(CC(CCN1CCC2(CC1)c1ccccc1C[S+]2[O-])(c1ccc(Cl)c(Cl)c1)N(C)C(=O)c1ccccc1)C(=O)CC(F)(F)F (stereo not drawn) [Compound No. 13, hydrochloride]
2. CCC(=O)N(C)C[C@](CCN1CCC2(CC1)c1ccccc1C[S@+]2[O-])(c1ccc(Cl)c(Cl)c1)N(C)C(=O)c1ccccc1 [Compound No. 34, hydrochloride]

1: 8.59; 2: 9.02

Give pIC50 for all compounds that follow.
1. CN(C[C@](CCN1CCC2(CC1)NC(=O)Cc1ccccc12)(c1ccc(Cl)c(Cl)c1)N(C)C(=O)C(=O)N(C)c1ccccc1)C(=O)CC(F)(F)F [Compound No. 27, hydrochloride]
2. CN(C[C@](CCN1CCC2(CC1)c1ccccc1C[S@+]2[O-])(c1ccc(Cl)c(Cl)c1)N(C)C(=O)c1ccc(C(F)(F)F)cc1)C(=O)CC(F)(F)F [Compound No. 31, hydrochloride]
3. CN(C[C@](CCN1CCC2(CC1)NC(=O)Cc1ccccc12)(c1ccc(Cl)c(Cl)c1)N(C)C(=O)c1ccccc1)C(=O)CC(F)(F)F [Compound No. 22, hydrochloride]
4. CN(CC(CCN1CCC2(CC1)c1ccccc1C[S+]2[O-])(c1ccc(Cl)c(Cl)c1)N(C)C(=O)C(=O)Nc1ccccc1Cl)C(=O)CC(F)(F)F (stereo not drawn) [Compound No. 9, hydrochloride]
5. CCN(C(=O)C(=O)N(C)[C@](CCN1CCC2(CC1)c1ccccc1C[S@+]2[O-])(CN(C)C(=O)C(C)C)c1ccc(Cl)c(Cl)c1)c1ccccc1 [Compound No. 39, hydrochloride]
6. CCN(C(=O)C(=O)N(C)[C@](CCN1CCC2(CC1)c1ccccc1C[S@+]2[O-])(CN(C)C(=O)CC(F)(F)F)c1ccc(Cl)c(Cl)c1)c1ccccc1 [Compound No. 25, hydrochloride]

1. 8.17
2. 9.12
3. 9.02
4. 8.14
5. 9.00
6. 9.24

pIC50 recorded for this compound, CCOC(=O)C(=O)N(C)C(CCN1CCC2(CC1)c1ccccc1C[C@@H]2O)(COCc1cc(OC)c(OC)c(OC)c1)c1ccc(Cl)c(Cl)c1 (mixture of isomers) [Compound No. 21, hydrochloride] , is 8.06

Cited source: patent US7276511B2
